Reported self-cleavage values for the following variants.
B1: CPEB3 Ribozyme (parent)
chain: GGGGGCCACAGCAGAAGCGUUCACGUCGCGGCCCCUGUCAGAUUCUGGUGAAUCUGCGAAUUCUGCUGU

- Variants of: B1
- Test Description: self-cleavage, relative activity (ratio to wild type); higher = more cleavage; co-transcriptional
Measurement Type: self-cleavage

[[record]]
mutant_name = "C39U C57A"
result_value = 0.34

[[record]]
mutant_name = "C7A G37A"
result_value = 0.133

[[record]]
mutant_name = "G17A C33A"
result_value = 0.21

[[record]]
mutant_name = "G5C C29G"
result_value = 0.113

[[record]]
mutant_name = "C27G C34A"
result_value = 0.207

[[record]]
mutant_name = "G17A G48A"
result_value = 0.611

[[record]]
mutant_name = "A42C U46A"
result_value = 0.967


Data origin: the RNAGym collection of RNA variant scans (doi:10.7554/elife.80360)
